target_or_system: Aurora kinase A (Homo sapiens) (UniProt O14965)
Sequence (O14965 whole entry): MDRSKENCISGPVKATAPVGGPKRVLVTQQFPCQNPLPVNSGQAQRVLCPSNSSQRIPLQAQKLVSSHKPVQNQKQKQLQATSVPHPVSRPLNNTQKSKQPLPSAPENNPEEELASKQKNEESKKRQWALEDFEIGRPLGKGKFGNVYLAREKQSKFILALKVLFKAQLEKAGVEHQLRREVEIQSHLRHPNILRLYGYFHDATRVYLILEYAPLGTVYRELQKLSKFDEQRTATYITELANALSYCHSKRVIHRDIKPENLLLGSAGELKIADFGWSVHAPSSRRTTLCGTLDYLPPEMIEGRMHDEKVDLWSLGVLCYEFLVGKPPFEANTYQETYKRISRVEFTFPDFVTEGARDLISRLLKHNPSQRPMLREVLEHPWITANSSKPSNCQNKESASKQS
assay_setup: Compound concentration 20.0 uM, Protein concentration 2.0 uM, Result type QC Liability
Description: Thermal Shift Assay. Domain: start/stop: E122-S403
parameter: ΔTm (°C)
Output spec: scalar in °C, unitless text.

# substance_smiles, ΔTm, °C
records = [
    ("COc1ccccc1[C@@H]1CNCCC12CCN(C(=O)[C@](OC)(c1ccccc1)C(F)(F)F)CC2", -0.11),
    ("N=C(N)NCCC[C@@H](NC(=O)C(c1ccccc1)c1ccccc1)C(=O)NCc1ccc(CNC(N)=O)cc1", 0.1),
    ("CN1C(=O)Cc2ccc(-c3ccc(C[C@@H](C#N)NC(=O)[C@@H]4N[C@H]5CC[C@@H]4C5)c(F)c3)cc21", -0.07),
    ("COc1ccc(C(F)(F)F)cc1NC(=O)Nc1ccc(Oc2cc(C)nc(N)n2)c2ccccc12", -0.77),
    ("COc1cccc(-c2c(C)c(Cc3c(F)cccc3C(F)(F)F)c3n(c2=O)[C@@H]([C@@H](N)c2ccccc2)CS3)c1F", -0.62),
]

Query string: Recorded ΔTm for Cc1[nH]nc(C(F)(F)F)c1Cc1sc2c(c1C(=O)N1C[C@](C)(O)CO1)c(=O)n(C)c(=O)n2C(C)C with Aurora kinase A (Homo sapiens) (UniProt O14965), please?
Result string: -0.32

====

target_or_system: Mitogen-activated protein kinase 1 (Homo sapiens) (UniProt P28482)
Sequence (P28482 whole entry): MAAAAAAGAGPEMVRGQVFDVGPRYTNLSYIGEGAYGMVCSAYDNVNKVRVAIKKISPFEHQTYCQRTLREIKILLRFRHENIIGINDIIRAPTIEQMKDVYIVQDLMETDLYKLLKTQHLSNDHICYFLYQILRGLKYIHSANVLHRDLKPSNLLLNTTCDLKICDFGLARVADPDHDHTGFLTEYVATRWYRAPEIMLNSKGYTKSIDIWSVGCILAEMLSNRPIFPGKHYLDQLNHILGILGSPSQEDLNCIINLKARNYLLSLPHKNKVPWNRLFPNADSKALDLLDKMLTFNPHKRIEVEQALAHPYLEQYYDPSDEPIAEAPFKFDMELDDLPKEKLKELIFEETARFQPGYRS
assay_setup: Compound concentration 20.0 uM, Protein concentration 2.0 uM, Result type QC Liability
Description: Thermal Shift Assay. Domain: start/stop: M1-S360
parameter: ΔTm (°C)
Quick reminder: number only, in °C, skip the unit.

# substance_smiles, target_or_system, ΔTm / °C
data = [
    ("CN1CCN(c2ccc(/C=C(\\C#N)c3ccccc3Br)cc2)CC1", "Mitogen-activated protein kinase 1 (Homo sapiens) (UniProt P28482)", 0.11),
    ("COc1ccc(-c2c(-c3ccccc3)oc3ncnc(O[C@H](C)CCCCC(=O)O)c23)cc1", "Mitogen-activated protein kinase 1 (Homo sapiens) (UniProt P28482)", -3.65),
    ("CC(C)(C)c1cnc(CSc2cnc(NC(=O)C3CCNCC3)s2)o1", "Mitogen-activated protein kinase 1 (Homo sapiens) (UniProt P28482)", 0.73),
    ("CC(=O)Nc1cccc(-n2c(=O)n(C3CC3)c(=O)c3c(Nc4ccc(I)cc4F)n(C)c(=O)c(C)c32)c1", "Mitogen-activated protein kinase 1 (Homo sapiens) (UniProt P28482)", 0.29),
]

Lab note: next compound to report on.
Query string: Which measured ΔTm belongs to CN(C)[C@H]1C[C@H](n2cnc(-c3ccc(F)cn3)c2-c2ccnc3[nH]ccc23)C1 , tested on Mitogen-activated protein kinase 1 (Homo sapiens) (UniProt P28482)?
Result string: 0.21

====

target_or_system: Glycogen synthase kinase-3 beta (Homo sapiens)
assay_setup: Compound concentration 20.0 uM, Protein concentration 2.0 uM, Result type QC Liability
Description: Thermal Shift Assay. Domain: start/stop: M26-R383
parameter: ΔTm (°C)
Your answer should be a plain number; it is taken to be in °C.

Query string: Please give the measured ΔTm for this compound: Cc1cc(-c2cc3ncccc3c(OC[C@H]3CCCNC3)n2)ccc1N(C)C
Result string: 1.68

Query string: Request: CCOC(=O)c1cc2cc(-c3cc(C(=O)NCc4ccc(C(=O)O)cc4)nn3C)ccc2[nH]1
Result string: 0.78

Data origin: ChEMBL document CHEMBL5308504
